meta.source: ChEMBL document CHEMBL1145902

target: Peroxisome proliferator-activated receptor alpha (Homo sapiens); type: functional
Sequence (Q07869 whole entry): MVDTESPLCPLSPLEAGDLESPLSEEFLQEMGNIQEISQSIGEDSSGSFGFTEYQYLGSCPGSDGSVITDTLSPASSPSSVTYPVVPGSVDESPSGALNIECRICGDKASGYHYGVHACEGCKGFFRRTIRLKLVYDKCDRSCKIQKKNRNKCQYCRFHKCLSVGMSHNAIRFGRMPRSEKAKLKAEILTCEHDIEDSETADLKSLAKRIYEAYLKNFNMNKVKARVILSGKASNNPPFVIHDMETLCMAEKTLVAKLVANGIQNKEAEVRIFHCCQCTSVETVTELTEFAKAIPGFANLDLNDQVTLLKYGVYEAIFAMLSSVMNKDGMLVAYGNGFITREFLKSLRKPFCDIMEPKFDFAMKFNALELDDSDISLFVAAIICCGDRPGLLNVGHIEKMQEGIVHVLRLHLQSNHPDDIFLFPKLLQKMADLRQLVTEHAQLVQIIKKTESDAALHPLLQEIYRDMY
experimental-endpoint: EC50 (µM)

[
  {
    "molecule": "CCCn1c(CCc2ccc(OC(C)(C)C(=O)O)cc2)nn(Cc2ccc(C)cc2)c1=O",
    "unit-abbreviation": "µM",
    "quantitative-result": 2.8
  },
  {
    "molecule": "Cc1ccc(Cn2nc(CCCc3ccc(OC(C)(C)C(=O)O)cc3)n(CC(=O)O)c2=O)cc1",
    "unit-abbreviation": "µM",
    "quantitative-result": 2.7
  }
]

1. Cc1ccc(Cn2nc(CCCc3ccc(OC(C)(C)C(=O)O)cc3)n(CCO)c2=O)cc1
2. CCCCCCn1c(CCc2ccc(OC(C)(C)C(=O)O)cc2)nn(Cc2cccc(OC)c2)c1=O
3. CCCn1c(CCCc2ccc(OC(C)(C)C(=O)O)cc2)nn(C(C)c2ccccc2)c1=O (stereo unspecified)
4. CCCn1c(CCCc2ccc(OC(C)(C)C(=O)O)cc2)nn(Cc2cccc(OC)c2)c1=O
Output the entries ranked by EC50 from maximum down to minimum. Answer by naming the labels in the order asked.
2, 3, 1, 4
(2: 2.2 µM, 3: 0.22 µM, 1: 0.088 µM, 4: 0.031 µM)
